meta.source: patent US20060079512A1

# Test system: 36 cancer cell lines
# assay-procedure: Anticancer activity profiling against 36 cell lines (IC50)
# Format: cell-based
# recorded-conditions: Homo sapiens, CNS cell, CNS, cell line 498NL (Xenograft), glioblastoma; read-out: IC50
pIC50: −log10 of the molar value.
endpoint-name: pIC50

molecule=CC(C)=CCC/C(C)=C/CC/C(C)=C/CN1C(=O)c2cccc(O)c2N(C)c2c(O)cc(O)cc21 tested_on="36 cancer cell lines" endpoint_name=pIC50 numeric_readout=6.75

----------
# assay-procedure: in vivo
# recorded-conditions: CD-1 nu/nu, mouse, in vivo, ip
endpoint-name: NOAEL

molecule=CC(C)=CCC/C(C)=C/CC/C(C)=C/CN1C(=O)c2cccc(O)c2N(C)c2c(O)cc(O)cc21 endpoint_name=NOAEL result="30 mg/kg"

----------
# Test system: 36 cancer cell lines
# assay-procedure: Anticancer activity profiling against 36 cell lines (IC50)
# Assay type: cell-based
# recorded-conditions: Melanoma, cell line 514L (Xenograft), mm, melanotic; read-out: IC50
# Method: Compounds were dissolved at 10 mM in DMSO. Dilution in vehicle to concentrations of 30, 10, 3, 1 and 0.3 μM were prepared immediately before assays. […] The following day, propidium iodide was added to one of the two plates and fluorescence measured (Tz). […] The equivalent cell number was determined after adding propidium iodide by measuring the signal by fluorescence (C for control).
endpoint-name: IC50 (nM)

compound="CC(C)=CCC/C(C)=C/CC/C(C)=C/CN1C(=O)c2cccc(O)c2N(C)c2c(O)cc(O)cc21 [Compound 2]" numeric_readout=110

----------
log10(GI50) values, listed per item
# Tested on: HT-29, SF-268, PC-3, MDA-MB-231
# assay-procedure: Average GI50 over the four cell lines, method (b)
# Assay type: cell-based
# recorded-conditions: values > 30 not considered
endpoint-name: log10(GI50) (log10 of the value in µM)

compound=CCCN1c2c(O)cccc2C(=O)N(C/C=C(\C)CC/C=C(\C)CCC=C(C)C)c2cc(O)cc(O)c21 endpoint_name=log10(GI50) numeric_readout=0.24
compound="COC(C)(CCC=C(C)C)CCC/C(C)=C/CN1C(=O)c2cccc(O)c2Nc2c(O)cc(O)cc21 (centres unmarked)" endpoint_name=log10(GI50) numeric_readout=1.09
compound="CC(C)=CCCC1(C)OC1CC/C(C)=C/CN1C(=O)c2cccc(O)c2Nc2c(O)cc(O)cc21 (centres unmarked)" endpoint_name=log10(GI50) numeric_readout=1.20
compound="CCN1c2c(O)cccc2C(=O)N(CC=C(C)CCCC(C)(CCCC(C)(C)OC)OC)c2cc(O)cc(O)c21 (centres unmarked)" endpoint_name=log10(GI50) numeric_readout=0.21
compound=CC(C)=CCC/C(C)=C/CC/C(C)=C/CN1C(=O)c2cccc(O)c2N(C)c2c(O)cc(O)cc21 endpoint_name=log10(GI50) numeric_readout=-0.44
compound="COC(C)(C)CCCC(C)(CCC/C(C)=C/CN1C(=O)c2cccc(O)c2Nc2c(O)cc(O)cc21)OC (centres unmarked)" endpoint_name=log10(GI50) numeric_readout=1.21
compound="COC(C)(CCC=C(C)C)CCC/C(C)=C/CN1C(=O)c2cccc(O)c2N(C)c2c(O)cc(O)cc21 (centres unmarked)" endpoint_name=log10(GI50) numeric_readout=0.06
compound=CCOC(=O)CN1c2c(O)cccc2C(=O)N(C/C=C(\C)CC/C=C(\C)CCC=C(C)C)c2cc(O)cc(O)c21 endpoint_name=log10(GI50) numeric_readout=0.93
